Source of measurements: PubChem BioAssay (EPA / NIEHS)

Read-out: CD38, CD38 (gene 952)
test description: BSK_SAg_CD38: BioMAP Diversity Plus: SAg Assay for CD38 Biomarker Activity (AID 2283087)
reported conditions: primary human HUVEC with PBMC; actives raise or lower the signal
Calls of active or inactive are those of the source. How the source made its calls: active means hit-call score of the fitted dose curve at least 0.9, where 1 is the maximum; inactive means score below 0.9.
recorded metric: AC50

Here's what some known entries look like.
>  <compound>
O=S(=O)(c1ccc(Cl)cc1)c1cc(Cl)c(Cl)cc1Cl

>  <AC50>
3.97 µM (active)

$$$$
>  <compound>
O=C1C=CC(=O)c2ccccc21

>  <AC50>
1.04 µM (active)

$$$$
>  <compound>
O=C(Cc1ccccc1)OCCc1ccccc1

>  <AC50>
inactive

$$$$
>  <compound>
CC(C)(C)c1cc([N+](=O)[O-])cc(C(C)(C)C)c1O

>  <AC50>
0.332 µM (active)

$$$$
>  <compound>
COCC(=O)N(c1c(C)cccc1C)[C@H](C)C(=O)OC

>  <AC50>
inactive

$$$$
>  <compound>
CCCCOC(=O)COC(=O)c1ccccc1C(=O)OCCCC

>  <AC50>
inactive

$$$$

Consider the record given below.
The compound listed as `Oc1c(Cl)cc(Cl)cc1Cl` shows AC50 equal to inactive

---

Read-out: Heat shock 70 kDa protein 1 (HSPA1A), gene 3303
test description: LTEA_HepaRG_HSPA1A: Life Technologies and Expression Analysis (LTEA) Assay for Heat shock 70 kDa protein 1 (HSPA1A) using HepaRG (AID 2283502)
reported conditions: mRNA level, 48 h; actives raise or lower the signal
Procedure: LTEA_HepaRG is a cell based, multiplexed-readout assay that uses HepaRG, a human liver cell line, with measurements taken at 48 hours after chemical dosing on a 96-well plate.LTEA_HepaRG_HSPA1A is one of 102 assay component(s) measured in the LTEA HepaRG cell culture assay. It is a marker of Oxidative Stress.Data from the assay component LTEA_HepaRG_HSPA1A was analyzed into 1 endpoint. […]
Active and inactive are the calls of the source. The calls were made as follows: active = hit-call score of the fitted dose curve at least 0.9, where 1 is the maximum; inactive = score below 0.9.
Select the correct class. Options are Y (active), N (inactive) and nothing else.

>  <chemical string>
O=C(O)C1(c2ccc3c(c2)OC[C@H](Cc2ccc(-c4ccccc4)cc2)[C@H]3O)CCCC1

>  <class label>
Y

$$$$
>  <chemical string>
CN(C)C(=S)S

>  <class label>
N

$$$$
>  <chemical string>
CCCCCCCCCCCCc1cccc(S(=O)(=O)O)c1

>  <class label>
Y

$$$$
>  <chemical string>
O=C(N[C@H]1CN2CCC1CC2)c1ccc2c(c1)OCCO2

>  <class label>
N

$$$$
>  <chemical string>
Cc1cc(C)cc(C)c1

>  <class label>
N

$$$$
>  <chemical string>
OCCN(CCO)CCO

>  <class label>
N

$$$$
>  <chemical string>
COc1ccccc1N

>  <class label>
N

$$$$

Consider the record given below.
Test call for this molecule, please: `Clc1cccc(Cl)c1Cl`
N

---

Read-out: Intercellular Adhesion Molecule 1 (ICAM1), ICAM1 (gene 3383)
test description: LTEA_HepaRG_ICAM1: Life Technologies and Expression Analysis (LTEA) Assay for Intercellular Adhesion Molecule 1 (ICAM1) using HepaRG (AID 2283507)
reported conditions: mRNA level, 48 h; actives raise or lower the signal
The source made the active and inactive calls. How the source made its calls: active means hit-call score of the fitted dose curve at least 0.9, where 1 is the maximum; inactive means score below 0.9.
recorded metric: outcome

>  <chemical string>
CCCCCCCCCCCCc1cccc(S(=O)(=O)O)c1

>  <reported result>
inactive

$$$$
>  <chemical string>
CN(C)C(=S)S

>  <reported result>
inactive

$$$$
>  <chemical string>
Oc1cc(Cl)c(Cl)cc1Cl

>  <reported result>
inactive

$$$$
>  <chemical string>
COc1ccccc1N

>  <reported result>
inactive

$$$$
>  <chemical string>
Clc1cccc(Cl)c1

>  <reported result>
inactive

$$$$
>  <chemical string>
O=C(N[C@H]1CN2CCC1CC2)c1ccc2c(c1)OCCO2

>  <reported result>
inactive

$$$$
>  <chemical string>
CC(C)O.CC(C)O.OCCN(CCO)CCO.OCCN(CCO)CCO.[Ti]

>  <reported result>
inactive

$$$$
>  <chemical string>
Clc1cccc(Cl)c1Cl

>  <reported result>
inactive

$$$$

Consider the record given below.
The molecule listed as `N#Cc1cccnc1` shows outcome equal to inactive

---

Read-out: Lipoprotein lipase (LPL), LPL (gene 4023)
test description: LTEA_HepaRG_LPL: Life Technologies and Expression Analysis (LTEA) Assay for Lipoprotein lipase (LPL) using HepaRG (AID 2283515)
reported conditions: mRNA level, 48 h; actives raise or lower the signal
Calls of active or inactive are those of the source. How the source made its calls: active means hit-call score of the fitted dose curve at least 0.9, where 1 is the maximum; inactive means score below 0.9.
Select the correct class. Options are active, inactive and nothing else.

Reference set, count: 8
>  <chemical string>
CCCCCCCCCCCCc1cccc(S(=O)(=O)O)c1

>  <class label>
active

$$$$
>  <chemical string>
O=C(N[C@H]1CN2CCC1CC2)c1ccc2c(c1)OCCO2

>  <class label>
inactive

$$$$
>  <chemical string>
N#Cc1cccnc1

>  <class label>
inactive

$$$$
>  <chemical string>
Clc1cccc(Cl)c1

>  <class label>
inactive

$$$$
>  <chemical string>
Cc1cc(C)cc(C)c1

>  <class label>
inactive

$$$$
>  <chemical string>
OCCN(CCO)CCO

>  <class label>
inactive

$$$$
>  <chemical string>
CC(C)O.CC(C)O.OCCN(CCO)CCO.OCCN(CCO)CCO.[Ti]

>  <class label>
inactive

$$$$
>  <chemical string>
CC(C)(C)c1ccccc1O

>  <class label>
inactive

$$$$

Test call for this compound, please: `CN(C)C(=S)S`
inactive

Test call for this compound, please: `COc1ccccc1N`
inactive

Test call for this compound, please: `Oc1c(Cl)cc(Cl)cc1Cl`
inactive

---

Test system: Sodium/Iodide Symporter (NIS), SLC5A5 (gene 6528)
test description: CPHEA_Stoker_NIS_Inhibition_RAIU: CPHEA's Radioactive Iodide Uptake (RAIU) Assay for Sodium/Iodide Symporter (NIS) Inhibition, Stoker and Laws Labs (AID 2283841)
Records with an inconclusive call do not appear. The source made the active and inactive calls. Rule for the calls: active = hit-call score of the fitted dose curve at least 0.9, where 1 is the maximum; inconclusive = response in the unintended direction; inactive = score below 0.9.
Select the correct class. Options are active, inactive and nothing else.

Reference set, count: 6
>  <molecule>
CCC[CH2][Sn]([Cl])([Cl])[CH2]CCC

>  <class label>
active

$$$$
>  <molecule>
CCCCCCCCCCCCc1cccc(S(=O)(=O)O)c1

>  <class label>
inactive

$$$$
>  <molecule>
O=C1c2ccccc2C(=O)C1C(=O)C(c1ccccc1)c1ccc(Cl)cc1 (centres undefined)

>  <class label>
inactive

$$$$
>  <molecule>
CCOc1ccc(N)cc1

>  <class label>
inactive

$$$$
>  <molecule>
CC(O)(CS(=O)(=O)c1ccc(F)cc1)C(=O)Nc1ccc(C#N)c(C(F)(F)F)c1 (centres undefined)

>  <class label>
active

$$$$
>  <molecule>
CC(C)N(C(=O)CCl)c1ccccc1

>  <class label>
inactive

$$$$

Test call for this molecule, please: C=CC(Cl)CCl (centres undefined)
inactive

Test call for this molecule, please: `CCCCCCCCCCCCOS(=O)(=O)O`
inactive

Test call for this molecule, please: `Oc1c(Br)cc(Br)cc1Br`
inactive

---

Read-out: Interleukin-1 alpha (IL1a), IL1A (gene 3552)
test description: BSK_BE3C_IL1a: BioMAP Diversity Plus: BE3C Assay for Interleukin-1 alpha (IL1a) Biomarker Activity (AID 2283016)
reported conditions: primary human bronchial epithelial cells; actives raise or lower the signal
The source made the active and inactive calls. Rule for the calls: active = hit-call score of the fitted dose curve at least 0.9, where 1 is the maximum; inactive = score below 0.9.
Select the correct class. Options are active, inactive and nothing else.

Reference set, count: 3
>  <compound>
NC(=O)CCl

>  <class label>
inactive

$$$$
>  <compound>
Cc1c([N+](=O)[O-])c(C)c([N+](=O)[O-])c(C(C)(C)C)c1[N+](=O)[O-]

>  <class label>
inactive

$$$$
>  <compound>
Nc1c(Oc2ccccc2)cc(O)c2c1C(=O)c1ccccc1C2=O

>  <class label>
inactive

$$$$

Test call for this compound, please: `Cc1ccc2nc3sc(=O)sc3nc2c1`
inactive

Test call for this compound, please: `Oc1cc(Cl)c(Cl)cc1Cl`
inactive

Test call for this compound, please: `O=C(N[C@H]1CN2CCC1CC2)c1ccc2c(c1)OCCO2`
inactive

---

Read-out: Forkhead box O1 (FOXO1), FOXO1 (gene 2308)
test description: LTEA_HepaRG_FOXO1: Life Technologies and Expression Analysis (LTEA) Assay for Forkhead box O1 (FOXO1) using HepaRG (AID 2283456)
reported conditions: mRNA level, 48 h; actives raise or lower the signal
Protocol: LTEA_HepaRG is a cell based, multiplexed-readout assay that uses HepaRG, a human liver cell line, with measurements taken at 48 hours after chemical dosing on a 96-well plate.LTEA_HepaRG_FOXO1 is one of 102 assay component(s) measured in the LTEA HepaRG cell culture assay. It is a marker of Cell proliferation, survival, death.Data from the assay component LTEA_HepaRG_FOXO1 was analyzed into 1 endpoint. […]
The source made the active and inactive calls. Rule for the calls: active = hit-call score of the fitted dose curve at least 0.9, where 1 is the maximum; inactive = score below 0.9.
recorded metric: AC50

Here's what some known entries look like.
>  <chemical string>
Clc1cccc(Cl)c1

>  <AC50>
inactive

$$$$
>  <chemical string>
O=C(O)C1(c2ccc3c(c2)OC[C@H](Cc2ccc(-c4ccccc4)cc2)[C@H]3O)CCCC1

>  <AC50>
50 µM (active)

$$$$
>  <chemical string>
Clc1cccc(Cl)c1Cl

>  <AC50>
inactive

$$$$
>  <chemical string>
O=C(N[C@H]1CN2CCC1CC2)c1ccc2c(c1)OCCO2

>  <AC50>
inactive

$$$$
>  <chemical string>
N#Cc1cccnc1

>  <AC50>
inactive

$$$$

The molecule listed as `COc1ccccc1N` shows AC50 equal to inactive

The molecule listed as `Cc1cc(C)cc(C)c1` shows AC50 equal to inactive

The molecule listed as `CCCCCCCCCCCCc1cccc(S(=O)(=O)O)c1` shows AC50 equal to 16.1 µM (active)
